# System: ATP;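 also: ATP exposure 15 min at 22 °C before imaging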
# Protocol details: switch fluorescence ratio, 500 uM ATP over buffer (Cy3 cluster intensity, sum of 5 cycles each) (fold (ratio)); higher = stronger signal-on switching upon ATP binding; sequences stand for … in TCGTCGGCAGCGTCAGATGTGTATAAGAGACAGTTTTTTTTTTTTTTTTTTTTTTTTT…TC
# Run conditions: aptamer strand: ATP DNA aptamer (quencher-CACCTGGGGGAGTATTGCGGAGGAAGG + anchor), 100 nM annealed; ATP concentration: 500 uM
Parameter measured: switch fluorescence ratio

> print(dat)
    query.sequence  quantitative.readout
 1      CTAAGGTGTT                  1.32
 2      AACTGTGGAA                 0.991
 3      TAGGTTGAGT                 0.996
 4      GGAATCTGTT                 0.993
 5      GAAAAAACAC                  1.16
 6      TGGTGATGGC                 0.991
 7      GGTGAAGAGG                 0.979
 8       TTATTGGTA                  1.04
 9      GTGAGGGATT                     1
10      TTGGTTGGGA                     1
11      ACGTGGGGTA                  1.04
12      GTTGAGTATA                  1.01
13      TTAATTAAAG                 0.993
14      TTTGACGCAT                   1.6
15      CGCACGGTAG                  1.05
16      GGTCAAGCTC                  1.02
17      ACATAGCGAA                  1.13
18      ATTGATATTG                 0.979
19      TGTTTTGGGC                 0.992
20      AAGGTAGTGT                 0.989
21      GGAATGGGTA                 0.997
22      CATCGCATCT                  1.79
23      ATGTTGATCT                 0.983

====

Parameter: switch fluorescence ratio. Scope: all listed entries.
# Tested on: ATP;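 also: ATP exposure 15 min at 22 °C before imaging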
# Protocol details: switch fluorescence ratio, 500 uM ATP over buffer (Cy3 cluster intensity, sum of 5 cycles each) (fold (ratio)); higher = stronger signal-on switching upon ATP binding; sequences stand for … in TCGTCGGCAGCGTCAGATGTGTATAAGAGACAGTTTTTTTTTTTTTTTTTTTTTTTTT…TC
# Run conditions: aptamer strand: ATP DNA aptamer (quencher-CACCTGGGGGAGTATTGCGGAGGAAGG + anchor), 100 nM annealed; ATP concentration: 500 uM
Parameter measured: switch fluorescence ratio

> print(dat)
    query.sequence         parameter.measured  quantitative.readout
 1      AAGTTCACAA  switch fluorescence ratio                  1.01
 2      TCGTTTTTTG  switch fluorescence ratio                 0.984
 3      AAGATTTTGT  switch fluorescence ratio                 0.995
 4      GAGTTGGGGT  switch fluorescence ratio                 0.986
 5       TCGGGGCGG  switch fluorescence ratio                 0.992
 6      AGTTGAGCTT  switch fluorescence ratio                 0.987
 7      ACTATGTCTT  switch fluorescence ratio                     1
 8      GCGGGGCCAT  switch fluorescence ratio                  1.02
 9      GTGGAGGGGA  switch fluorescence ratio                  1.01
10      ATGTATTCGC  switch fluorescence ratio                 0.983
11      TACAGATTGG  switch fluorescence ratio                 0.979
12      GGTTAGAGTA  switch fluorescence ratio                  1.01
13      TTAATAGTTA  switch fluorescence ratio                 0.992
14      TTATGAGCGT  switch fluorescence ratio                     1
15       CATGAATAG  switch fluorescence ratio                 0.994
16      CGGAGAGGGT  switch fluorescence ratio                     1
17      AGGGTCTAGA  switch fluorescence ratio                 0.978
18      GATTTAATGG  switch fluorescence ratio                     1
19      AGGTTGGACT  switch fluorescence ratio                 0.991

====

# Tested on: ATP;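 also: ATP exposure 15 min at 22 °C before imaging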
# Protocol details: switch fluorescence ratio, 500 uM ATP over buffer (Cy3 cluster intensity, sum of 5 cycles each) (fold (ratio)); higher = stronger signal-on switching upon ATP binding; sequences stand for … in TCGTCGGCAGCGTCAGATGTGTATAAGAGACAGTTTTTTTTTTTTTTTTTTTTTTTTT…TC
# Run conditions: aptamer strand: ATP DNA aptamer (quencher-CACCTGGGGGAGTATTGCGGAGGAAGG + anchor), 100 nM annealed; ATP concentration: 500 uM
Where switch fluorescence ratio equals or exceeds 1, the correct label is label 1; where it does not, the label is label 0.

> print(dat)
    query.sequence  class.name
 1      CCCCGTGTAT     label 1
 2      TTGATCTTGG     label 1
 3      TAAAAGTGTT     label 1
 4      ATACGGGGTA     label 1
 5      GCCTCAGGGT     label 1
 6      TGTTGAATTT     label 0
 7      TTATAATACT     label 1
 8      TGAGAGTTAA     label 0
 9      AAGGACTATT     label 1
10      TAGCTCAGGG     label 1
11      CCCCGTAGTC     label 1
12      CCGGAGATTT     label 1
13      GATTTATGAG     label 0

====

Entries annotated with measured switch fluorescence ratio
# System: ATP;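 also: ATP exposure 15 min at 22 °C before imaging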
# Protocol details: switch fluorescence ratio, 500 uM ATP over buffer (Cy3 cluster intensity, sum of 5 cycles each) (fold (ratio)); higher = stronger signal-on switching upon ATP binding; sequences stand for … in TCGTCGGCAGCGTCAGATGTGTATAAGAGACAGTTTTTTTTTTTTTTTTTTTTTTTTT…TC
# Run conditions: aptamer strand: ATP DNA aptamer (quencher-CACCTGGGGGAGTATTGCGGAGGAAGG + anchor), 100 nM annealed; ATP concentration: 500 uM
Parameter measured: switch fluorescence ratio

> print(dat)
    query.sequence         parameter.measured  quantitative.readout
 1      TCGGAGGAAG  switch fluorescence ratio                  1.02
 2      CGAGGGGACG  switch fluorescence ratio                     1
 3      CAAAAAGAAT  switch fluorescence ratio                     1
 4      TAATTTCGGG  switch fluorescence ratio                 0.986
 5      GGGATCGGGA  switch fluorescence ratio                 0.995
 6      TTACTTGGCT  switch fluorescence ratio                  1.01
 7      ATCTTGCGGA  switch fluorescence ratio                  1.02
 8      TTGGGTAAGG  switch fluorescence ratio                 0.993
 9      ATCGCGGGGT  switch fluorescence ratio                 0.979
10      GAGGGTAGAG  switch fluorescence ratio                  1.01
11      CGGCATGGAG  switch fluorescence ratio                 0.996
12      GTGCTTCTTA  switch fluorescence ratio                 0.992
13      AGTGGCATAG  switch fluorescence ratio                 0.996
14      ATTGTGGGAA  switch fluorescence ratio                 0.984
15      GGGTTTATGA  switch fluorescence ratio                  0.98
16      GGGGTTCCTC  switch fluorescence ratio                 0.992
17      TAGCGGGATT  switch fluorescence ratio                  1.02
18      AGTTAACTCA  switch fluorescence ratio                  1.01
19      TGGGGGGGCA  switch fluorescence ratio                     1
20      GGTTAATAGG  switch fluorescence ratio                  0.99
21      AGTCTTTTTG  switch fluorescence ratio                 0.999
22      AAGGGGCGAG  switch fluorescence ratio                  0.98
23      AATAAGGTTG  switch fluorescence ratio                 0.982
24      AATATGATTC  switch fluorescence ratio                 0.992
25      AAATATATGT  switch fluorescence ratio                 0.997
